Data export: IC50 values recorded with PDE5 (PDE5A1) (Homo sapiens, UniProt O76074).

molecule	measurement_unit	IC50
O=c1c(O)c(-c2ccc(O)c(O)c2)oc2cc(O)cc(O)c12 [Compound 3, quercetin]	µM	0.61
COc1c(-c2ccc(O)c(OC3OCC(O)C(O)C3O)c2)oc2cc(O)cc(O)c2c1=O (stereo not shown) [Compound 2]	µM	5.63
COc1c(-c2ccc(O)c(O)c2)oc2cc(O)cc(O)c2c1=O [Compound 4, 3-O-methylquercetin]	µM	5.74
O=c1c(O)c(-c2ccc(O)c(O[C@@H]3OC[C@@H](O)[C@H](O)[C@H]3O)c2)oc2cc(O)cc(O)c12 [Compound 1, quercetin 3’-O-β-xylopyranoside]	µM	4.09

====

molecular target: PDE5 (PDE5A1) (Homo sapiens); construct: made in house; host or cells: HEK293 (transient transfection; supernatant of sonicated homogenate); assay: Phosphodiesterase 5 inhibition assay (two-step radioactive procedure, [3H]cGMP); assay type: biochemical

compound	PDE5 IC50 level (in words)
O=c1c(O)c(-c2ccc(O)c(O)c2)oc2cc(O)cc(O)c12	micromolar level
COc1c(-c2ccc(O)cc2)oc2cc(O)cc(O)c2c1=O	micromolar level
O=c1c(O)c(-c2ccc(O)c(O[C@@H]3OC[C@@H](O)[C@H](O)[C@H]3O)c2)oc2cc(O)cc(O)c12 [Compound 1, quercetin 3’-O-β-xylopyranoside]	micromolar level
COc1c(-c2ccc(O)c(O)c2)oc2cc(O)cc(O)c2c1=O	micromolar level
COc1c(-c2ccc(O)c(OC3OCC(O)C(O)C3O)c2)oc2cc(O)cc(O)c2c1=O (centres unmarked)	micromolar level
